Reference source: PubChem BioAssay (NCI)

# System: MDA-MB-468 breast
# method.summary: NCI-60 one-dose screen, 48 h (100 = growth as untreated, 0 = no growth, -100 = all killed)
# applied.conditions: 10 µM unless noted
The panel holds about 83,000 compounds, 20% with a hit somewhere; the sample as a whole holds those more often.
quantity.kind: growth (%)
Answers are plain numbers, in %.

// each listed molecule needs a value for growth
1. CCCCCCCC/C=C/CCCCCCCC1=NC(C)(C)CN1C(C)(C)CO
2. O=C1/C(=C\c2ccc(Br)cc2)CN(C(=O)c2ccccc2F)C/C1=C\c1ccc(Br)cc1
3. CC(=O)[C@@H]1CC[C@]2(C(N)=O)CC[C@]3(C)[C@H](CC[C@@H]4[C@@]5(C)CCC(=O)C(C)(C)[C@@H]5CC[C@]43C)[C@@H]12

1. -91.5
2. -54.1
3. 98.5

// each listed molecule needs a value for growth
1. COc1cccc(-c2nc3sccn3c2-c2ccnc(NCCNS(=O)(=O)c3ccccc3)n2)c1
2. O=C(CN1CCN(c2cc3c(cc2F)c(=O)c(C(=O)N/N=C/c2ccccc2O)cn3C2CC2)CC1)N/N=C\c1ccccc1O
3. CCOC(=O)c1c(NCC(=O)Nc2cccc([N+](=O)[O-])c2)sc(C(C)=O)c1C
4. CCN(CC)CCCCNc1c2ccc(Cl)cc2nc2ccc(OC)cc12
5. COc1ccc(-n2cc(COc3ccc4c5ccnc(C)c5n(CC(C)C)c4c3)nn2)cc1
6. Nc1ccccc1-c1ccc(-c2ccc(Cl)cc2)c2c1[nH]c1ccccc12

1. 67.4
2. -4.47
3. -22.5
4. -42.7
5. 35.3
6. 91.5

---

# System: MDA-MB-468 breast
# method.summary: NCI-60 one-dose screen, 48 h
# applied.conditions: 10 µM unless noted
Compounds without any hit were thinned out: in the full panel of roughly 83,000, 20% have a hit. Activity calls are given as the source filed them. Rule for the calls: active = growth percent below 10; inactive = the rest.
Your response should consist of one outcome taken from active, inactive

1) NS(=O)(=O)c1ccc(-n2cc(CC=O)nn2)cc1
inactive

Given O=C1[C@H]2Cc3c([nH]c4ccccc34)[C@@H](c3ccc(Br)cc3)N2C(=O)CN1C1CCN(CC2CCCCC2)CC1 , state the outcome it received in this test.
active

Given Cc1nn(-c2ccc(-c3ccc(OC(F)(F)F)cc3)cc2)c2nc(-c3ccccc3)nc(N)c12 , state the outcome it received in this test.
inactive

---

# Tested on: MDA-MB-468 breast
# method.summary: NCI-60 one-dose screen, 48 h (100 = growth as untreated, 0 = no growth, -100 = all killed)
# applied.conditions: 10 µM unless noted
# Procedure: Growth inhibition of the MDA-MB-468 human Breast tumor cell line is measured as a screen for anti-cancer activity. Cells are grown in 96 well plates and exposed to the test compound for 48 hours. Compounds are tested at a single concentration, which is 10^-5 M for most compounds. The reported endpoint is percent growth (GI% or GIPRCNT), where numbers from 0 - 100% represent growth inhibition, and numbers from -100% - 0 represent cell death. […]
The panel holds about 83,000 compounds, 20% with a hit somewhere; the sample as a whole holds those more often.
quantity.kind: growth (%)
Numbers only, in %.

For orientation, consider the following solved cases.
1. Cc1cn(-c2cc(NC(=O)c3cncc(C#Cc4cnc5ccc(O[C@@H]6CCOC6)nn45)c3)cc(C(F)(F)F)c2)cn1
-74.8
2. O=C(CCCCCCN1CC(=O)N2[C@H](c3ccc(Cl)cc3)c3[nH]c4ccccc4c3C[C@@H]2C1=O)NO
36.5

// each listed molecule needs a value for growth
1. CCO/C=N/C1=C(C#N)C(c2ccc(F)cc2)c2sc3c(F)cccc3c2O1 (configuration not stated)
2. Cc1c(O)cc(-c2cnc(Nc3ccccc3)s2)c(O)c1C
3. CCCCCCCc1n(Cc2ccc3ccccc3c2)c2ccccc2[n+]1Cc1ccc2ccccc2c1
4. OCCOSCCO
5. CC(C)n1nc(C#Cc2cccc(O)c2)c2c(N)ncnc21

1. 27.2
2. 57.4
3. -69.6
4. 98.2
5. -44.2

// each listed molecule needs a value for growth
1. Cc1ccc(C(=O)N2C/C(=C/c3ccccc3)C(=O)/C(=C/c3ccccc3)C2)cc1
2. COc1cc(/C=C/C(=O)c2cc(-c3ccccc3)ccc2O)cc(OC)c1OC
3. CCC(C)/C(=C\C#N)NCCCN/C(=C/C#N)C(C)CC (configuration not stated)

[18.1, 58.3, 108]

// each listed molecule needs a value for growth
1. Cc1cc(C)c2nc(Nc3nc(C)c(C)c(=O)[nH]3)nc(C)c2c1
2. CC(=O)C(C)Cc1cc2c(cc1C)C(C)(C)CCC2(C)C (configuration not stated)

1: -35.8; 2: 97.6

---

# System: MDA-MB-468 breast
# method.summary: NCI-60 one-dose screen, 48 h (100 = growth as untreated, 0 = no growth, -100 = all killed)
# applied.conditions: 10 µM unless noted
The panel holds about 83,000 compounds, 20% with a hit somewhere; the sample as a whole holds those more often.
Exercise: for every item that follows, state its recorded growth.
One number for each entry, in %.

For orientation, consider the following solved cases.
1) N#Cc1c(-c2ccc(Br)cc2)nc2c(N=Nc3ccc(S(N)(=O)=O)cc3)c(N)nn2c1N
23.6
2) Cc1ccc(C)c(COc2cc(NC(=O)c3ccc4c(c3)OCO4)ccc2N(C)S(C)(=O)=O)c1
-29.6
3) CCN1CCN(C(=O)[C@]23CCC(C)(C)C[C@@H]2C2=CC[C@@H]4[C@@]5(C)CCC(=O)C(C)(C)[C@@H]5CC[C@@]4(C)[C@]2(C)CC3)CC1
30.5
4) O=[N+]([O-])c1cccc(C(F)(F)F)c1
101

# evaluate next
So what does the record say about growth for Cc1cc(=O)oc2cc(OC(=O)CN3CCN(C)CC3)ccc12 ?
101

---

# Test system: MDA-MB-468 breast
# method.summary: NCI-60 one-dose screen, 48 h (100 = growth as untreated, 0 = no growth, -100 = all killed)
# applied.conditions: 10 µM unless noted
About 83,000 compounds went through this panel and 20% of them were active in at least one assay; those are over-represented in the sample as a whole. Activity calls are given as the source filed them. The calls were made as follows: active = growth percent below 10; inactive = the rest.
quantity.kind: growth

1. COc1cc2ncnc(Nc3ccc(S(=O)(=O)Nc4cc(C)on4)cc3)c2cc1OCCCN1CCN(c2ccc([N+](=O)[O-])cc2)CC1
115% (inactive)

// each listed molecule needs a value for growth
1. CCN(CC)CCCNC(=O)c1c2c(n3ccccc13)C(=O)c1ncccc1C2=O
2. Cc1[nH]c(C(=O)Nc2ccccc2OCc2cccc(C(=O)NC3CCCNC3)c2)c(Cl)c1Cl (centres undefined)
3. COc1cc(NCC(O)CN(CC(C)C)CC(C)C)c2ncccc2c1 (centres undefined)

1: -70.1% (active); 2: -80.6% (active); 3: -19.8% (active)

---

# Tested on: MDA-MB-468 breast
# method.summary: NCI-60 one-dose screen, 48 h (100 = growth as untreated, 0 = no growth, -100 = all killed)
# applied.conditions: 10 µM unless noted
About 83,000 compounds went through this panel and 20% of them were active in at least one assay; those are over-represented in the sample as a whole. Active and inactive are the calls of the source. Rule for the calls: active = growth percent below 10; inactive = the rest.
quantity.kind: growth

For orientation, consider the following solved cases.
1. CCNC(=O)N1CCc2cc(OC)c(OCCc3ccc(OC)cc3)cc2C1c1ccc(OC)cc1C (stereo not drawn)
12.6% (inactive)
2. O=C1/C(=C/c2ccccn2)CCc2ccccc21
98.4% (inactive)

# evaluate next
So what does the record say about growth for COc1cc(-c2nn(-c3cccc(NC(=O)Nc4ccc(Cl)c(Cl)c4)c3)cc2-c2ccncc2)ccc1Cl ?
2.14% (active)

---

# Tested on: MDA-MB-468 breast
# method.summary: NCI-60 one-dose screen, 48 h (100 = growth as untreated, 0 = no growth, -100 = all killed)
# applied.conditions: 10 µM unless noted
# Protocol: Growth inhibition of the MDA-MB-468 human Breast tumor cell line is measured as a screen for anti-cancer activity. Cells are grown in 96 well plates and exposed to the test compound for 48 hours. Compounds are tested at a single concentration, which is 10^-5 M for most compounds. The reported endpoint is percent growth (GI% or GIPRCNT), where numbers from 0 - 100% represent growth inhibition, and numbers from -100% - 0 represent cell death. […]
The panel holds about 83,000 compounds, 20% with a hit somewhere; the sample as a whole holds those more often. The source made the active and inactive calls. Rule for the calls: active = growth percent below 10; inactive = the rest.
Exercise: for every item that follows, state its recorded growth.

For orientation, consider the following solved cases.
1. N#CC1=C(N)Oc2c(cnn2-c2ccc([N+](=O)[O-])cc2[N+](=O)[O-])C1c1ccccc1 (stereo unspecified)
87.7% (inactive)
2. CS(=O)(=O)c1ccc(C(=O)N/N=C/c2ccccc2Cl)cc1
96.1% (inactive)
3. CCn1cc(C(=O)O)c(=O)c2cc(F)c(N3CCN(S(=O)(=O)c4cccc5ccccc45)CC3)cc21
4.79% (active)
4. Cc1[nH]c(C(=O)Nc2ccccc2OC2CCN(CCN3CCOCC3)CC2)c(Cl)c1Cl
91.6% (inactive)
5. C/C=C/C1=CN2C(=O)c3cc(OC4OC(C)C(NC)C(C)(O)C4O)c(C)cc3N=C[C@@H]2C1 (stereo partly specified)
-52.9% (active)
6. Nc1ccc(N=Nc2ccc(O)cc2)c(N)n1
83.4% (inactive)

// each listed compound needs a value for growth
1. Cn1cc(-c2csc(-c3cn(C)c4ccc(Br)cc34)n2)c2cnccc21
2. CC1=CC(=O)C2=C(C)CC(OC(=O)CCc3ccccc3)[C@@H]3[C@H](OC(=O)[C@@H]3C)[C@@H]12 (stereo partly specified)

-68.4% (active)
79.4% (inactive)
